# Test system: OVCAR-3 ovarian
# Measurement Notes: NCI tumour cell line growth inhibition, 48 h; in the data active = GI50 below about 0.43 µM; inactive = the rest
Outcomes: 1.0 = active, 0.0 = inactive

- COc1cc2c(c(OC)c1OC)-c1ccc(NNC(N)=S)c(=O)cc1[C@@H](NC(C)=O)CC2: 1.0
- OCCN(CCO)c1ncnc2c1ncn2Cc1ccc(CCl)cc1: 0.0
- O=C(Nc1ccc(F)cc1)Nc1ccc(Cl)c([N+](=O)[O-])c1: 0.0
- CC1CCc2nc[nH]c(=O)c21 (stereo not given): 0.0
- O=C1c2ccccc2-c2c1c1ccccc1c(=O)n2CCNCCNCCNCCn1c2c(c3ccccc3c1=O)C(=O)c1ccccc1-2: 0.0
- Fc1[nH]nc2ccc([C@@H]3Nc4ccc5[nH]ncc5c4[C@H]4C5CCC(C5)[C@@H]34)cc12 (stereo not given in full): 1.0
- O=C1NC(=NCCc2cccc(F)c2)S/C1=C\c1ccc2ncccc2c1: 0.0
- CN(C)c1ccc(/C=C\C2=[N+](C)c3ccccc3C2(C)C)cc1: 1.0
- CC(=O)OC1OC([C@@H]2c3cccc(O)c3C(=O)c3c(O)cc(C)cc32)C(O)C(O)C1O (stereo not given in full): 1.0
- COC(=O)/C=C1\S/C(=N\NC(=O)c2cc3ccc2/C=C\c2ccc(cc2)/C=C\3)N(c2ccccc2)C1=O: 0.0
